Tested on: colorectal cancer cell lines (e.g. DLD-1, HCT 116, SW620, HCT-15, HCT-8, RKO)
Experiment Description: Cell based assay, cell viability (CellTiter-Glo), colorectal cancer cell lines
Measurement Setup: Homo sapiens, HCT-15, 72 hours treatment, read-out: IC50, colorectal cancer cell line HCT-15
This section presents molecules with their documented IC50 values.

> print(dat)
                                   molecule     result
1  CC(=O)c1c([S+]([O-])c2ccccc2)[nH]c2c(Br)ccc(Cl)c2c1=O (stereo not shown) [Compound 13]  > 2000 nM
2  CC(=O)c1c([S+](C)[O-])n(S(=O)(=O)C(F)(F)F)c2c(Br)ccc(Cl)c2c1=O (stereo not shown) [Compound 36]  > 2000 nM
3  CC(=O)c1c([S+]([O-])Cc2ccc(C(F)(F)F)o2)[nH]c2c(Br)ccc(Cl)c2c1=O (stereo not shown) [Compound 72]     990 nM

Note: attention shifts to another entry.
// lookup IC50 for CC(=O)c1c(SC(C)C)[nH]c2c(Br)ccc(Cl)c2c1=O [Compound 24]
> 2000 nM
